# tested-on: HTRA2, O43464
# Sequence (O43464 355-458): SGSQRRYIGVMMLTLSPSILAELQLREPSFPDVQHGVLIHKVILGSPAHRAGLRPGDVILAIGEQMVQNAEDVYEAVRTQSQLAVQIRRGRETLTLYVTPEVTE
# assay-protocol: holdup assay
# Design: key: below the threshold = too weak to quantify, mostly under pKd 3.1 to 4
# test-context: plain residues with an end cap or a label only (N-terminal biotin on a linker: ado-ado)
observed-property: pKd

1) HDDYFYHDEL [RCN2, Q14257] ... below the threshold
2) YAEKRMLTEV [KCNA6, P17658] ... below the threshold
3) STYCDYTIEI [FAM71C, Q8NEG0] ... 3.85
4) GVHSNDHSVV [LPAR1, Q92633] ... below the threshold
